ASSAY INFO: AUC (0 to t) in Sprague-Dawley rat at 5 mg/kg, iv
Type: ADME, organism-based
Parameters: dose 5 mg/kg, route intravenous
APPLIED CONDITIONS: plasma
METRIC: AUC(0-t)

{"columns": ["COMPOUND", "READING"],
 "data": [
  ["CC1(c2ccc(Nc3nc(N4CCCCC4)nc(N4CCCCC4)n3)cc2)NC(=O)c2ccccc2N1 (stereo unspecified)", "2840 ng·h/mL"]
]}

----------
ASSAY INFO: Elimination half life in Sprague-Dawley rat at 10 mg/kg, iv
Assay type: ADME, organism-based
Parameters: dose 10 mg/kg, route intravenous
APPLIED CONDITIONS: in vivo, read-out: beta t1/2 (converted)

{"columns": ["COMPOUND", "MEASUREMENT UNIT", "half-life"],
 "data": [
  ["CC1(c2ccc(Nc3nc(N4CCc5ccccc5C4)nc(N4CCc5ccccc5C4)n3)cc2)NC(=O)c2ccccc2N1 (stereo unspecified)", "min", 767]
]}
